Listing of recorded TGI by entry.
# System: SF-268 CNS
# protocol notes: NCI tumour cell line growth inhibition, 48 h

- compound: "COc1ccc(NC(=S)Nc2ccccc2)cc1"
  TGI: "> 100 µM"
- compound: "O=C1OCC(C#Cc2ccccc2)=C1Br"
  TGI: "20.6 µM"
- compound: "O=C1NC(=O)C(c2c[nH]c3cc(Br)ccc23)=C1c1cnc[nH]1"
  TGI: "> 100 µM"
- compound: "O=C1C(Br)=C(C2=CC(=P(c3ccccc3)(c3ccccc3)c3ccccc3)C=C2)C(=O)C(Br)=C1C1=CC(=P(c2ccccc2)(c2ccccc2)c2ccccc2)C=C1"
  TGI: "> 100 µM"
- compound: "COc1cc(OC)c2nc3occc3c(OC)c2c1"
  TGI: "> 100 µM"
- compound: "COc1ccc(-c2nc3c(-c4ccccc4)nc(-c4ccccc4)cn3c2-c2ccc(OC)cc2)cc1"
  TGI: "> 100 µM"
- compound: "CCc1cccc(C)c1NC(=O)CCc1n[nH]c(=S)o1"
  TGI: "> 100 µM"
- compound: "O=S(=O)(SCCCCSS(=O)(=O)c1ccc(Cl)cc1)c1ccc(Cl)cc1"
  TGI: "29.1 µM"
- compound: "COC(=O)C1=C(O)C(C(=O)OC)[C@]2(O)[C@@H](C(=O)OC)[C@H]1[C@H](C)[C@@H](c1ccccc1)[C@@H]2C(=O)OC (stereo partly drawn)"
  TGI: "> 100 µM"
- compound: "CCN(CC)CCNC(=O)c1cc2cc(NC(=O)c3cc4cc(N)ccc4[nH]3)ccc2[nH]1"
  TGI: "> 100 µM"
- compound: "CCCC(=O)OCC1OC(n2cnc3c(=S)nc(N)[nH]c32)C(OC(=O)CCC)C1OC(=O)CCC (stereo not drawn)"
  TGI: "> 100 µM"
- compound: "OCCCCOC(c1ccccc1)(c1ccccc1)c1ccccc1"
  TGI: "> 100 µM"
- compound: "Nc1ccc(C(=O)N/C(=C\\C=C\\c2ccco2)c2nc3c4c(ccc3[nH]2)C(=O)c2ccccc2C4=O)cc1"
  TGI: "> 100 µM"
- compound: "N#C/C(=C\\Nc1ccccn1)C(=O)C1CC1"
  TGI: "> 100 µM"
- compound: "O=C(O)C1CCC(=O)N1C(=O)C(Cl)c1ccccc1 (stereo not drawn)"
  TGI: "> 100 µM"
- compound: "CC(=O)OC(C[C@H](C)[C@@H]1CC[C@]2(C)C3=CCC4C(C)(C)C(=O)CC[C@]4(C)C3CCC12C)C1OC1(C)C (stereo partly drawn)"
  TGI: "83.2 µM"
- compound: "O=C(Nc1c(O)[nH]c(=S)[nH]c1=O)c1ccco1"
  TGI: "> 100 µM"
- compound: "CC1(C)CC(=O)c2c(nc3c4c([nH]c(-c5ccc([N+](=O)[O-])cc5)c24)CC(C)(C)C3)C1"
  TGI: "> 100 µM"

====

# Test system: HS 578T breast
# protocol notes: NCI tumour cell line growth inhibition, 48 h
property label: TGI (µM)

- compound: "OC1CCCCCCCCCCC1SCCCCl (stereo not given)"
  unit descriptor: "µM"
  qualifier symbol: ">"
  observed value: 100
- compound: "Nc1nc(N)c2nc(CNc3ccc(C(=O)NC(CCC(=O)O)C(=O)O)cc3F)cnc2n1 (stereo not given)"
  unit descriptor: "µM"
  qualifier symbol: ">"
  observed value: 100
- compound: "CC(=O)OC(C)(C)C1O[C@@]23OC1C[C@@H](C)[C@@H]2[C@@]1(C)CC[C@@]24C[C@@]25CC[C@H](OC2OCC(O)C(O)C2O)C(C)(C)[C@@H]5CCC4[C@]1(C)[C@H]3O (stereo not given in full)"
  unit descriptor: "µM"
  qualifier symbol: "="
  observed value: 45.6
- compound: "Nc1nc(N)c2ncn(-c3ccc(Br)cc3)c2n1"
  unit descriptor: "µM"
  qualifier symbol: "="
  observed value: 25.3
- compound: "COc1ccc(/C=C/c2cc(OC)c(OC)c(OC)c2)cc1O[Si](C)(C)C(C)(C)C"
  unit descriptor: "µM"
  qualifier symbol: "="
  observed value: 8.18
- compound: "O=C1NC(N/N=C/c2cccs2)=N/C1=C\\c1ccco1"
  unit descriptor: "µM"
  qualifier symbol: "="
  observed value: 76.7
- compound: "CN(C)c1ccc(/C=C(\\NC(=O)c2ccccc2)C(=O)Nc2ccccc2C(=O)NCc2ccccc2)cc1"
  unit descriptor: "µM"
  qualifier symbol: ">"
  observed value: 100
- compound: "O=C1NC(=O)C(c2c[nH]c3cc(Br)ccc23)=C1c1cnc[nH]1"
  unit descriptor: "µM"
  qualifier symbol: ">"
  observed value: 100
- compound: "CCOC(=O)CO/N=C\\C1=CC(=O)C2CC1C2(C)C (stereo not given)"
  unit descriptor: "µM"
  qualifier symbol: ">"
  observed value: 100
- compound: "CC(C)C[C@@H](NC(=O)[C@@H](Cc1ccccc1)NC(=O)c1cnccn1)B1Oc2ccc(C[C@H](NC(=O)[C@H](Cc3ccc4c(c3)OB([C@@H](CC(C)C)NC(=O)[C@@H](Cc3ccccc3)NC(=O)c3cnccn3)O4)NC(=O)[C@@H](N)CC3CCC4OB([C@@H](CC(C)C)NC(=O)[C@@H](CC5CCCCC5)NC(=O)C5CNCCN5)OC4C3)C(=O)NCCCC[C@@H]3NC(=O)[C@@H](Cc4ccccc4)NC(=O)[C@H](CC(=O)O)NC(=O)CNC(=O)[C@H](CCCNC(=N)N)NC3=O)cc2O1 (stereo not given in full)"
  unit descriptor: "µM"
  qualifier symbol: ">"
  observed value: 25
